Assay: Cmax in C57BL/6 mouse brain at 25 mg/kg, ip
Assay type: ADME, organism-based
Design: dose 25 mg/kg, route ip
Property measured: Cmax (nM)
Write the value in nM as a bare number.

Query: Identify Cmax associated with the compound C[C@@H](C(=O)Nc1ccc(OC2CCN(C(=O)CCOCCOCCNc3cccc4c3C(=O)N(C3CCC(=O)NC3=O)C4=O)CC2)cc1)[C@H]1CC[C@@H](c2ccnc3ccc(F)cc32)CC1 (stereo partly specified)
Response: 2000

---

Target: UniProt:P14902
Property measured: pKd
Just so you know, pKd here is -log10 of the concentration in molar units; reply with that number alone.

C[C@@H](C(=O)Nc1ccc(OC2CCN(C(=O)CCOCCOCCNc3cccc4c3C(=O)N(C3CCC(=O)N(C)C3=O)C4=O)CC2)cc1)[C@H]1CC[C@@H](c2ccnc3ccc(F)cc32)CC1 (some centres not stated) | 5.96

Moving on to the next compound.
Query: Identify pKd associated with the compound C[C@@H](C(=O)Nc1ccc(OC2CCN(C(=O)CCOCCOCCNc3cccc4c3C(=O)N(C3CCC(=O)NC3=O)C4=O)CC2)cc1)[C@H]1CC[C@@H](c2ccnc3ccc(F)cc32)CC1 (some centres not stated)
Response: 6.19

---

Biological target: Protein cereblon/Indoleamine 2,3-dioxygenase 1 (Homo sapiens, UniProt P14902+Q96SW2)
Assay: Protac activity at IDO1/CRBN in IFNgamma-stimulated human U87 cells assessed as IDO1 degradation at 10 uM measured after 24 hrs by Western blotting analysis relative to control
Format: cell-based
Sequence (P14902 whole entry, looked up): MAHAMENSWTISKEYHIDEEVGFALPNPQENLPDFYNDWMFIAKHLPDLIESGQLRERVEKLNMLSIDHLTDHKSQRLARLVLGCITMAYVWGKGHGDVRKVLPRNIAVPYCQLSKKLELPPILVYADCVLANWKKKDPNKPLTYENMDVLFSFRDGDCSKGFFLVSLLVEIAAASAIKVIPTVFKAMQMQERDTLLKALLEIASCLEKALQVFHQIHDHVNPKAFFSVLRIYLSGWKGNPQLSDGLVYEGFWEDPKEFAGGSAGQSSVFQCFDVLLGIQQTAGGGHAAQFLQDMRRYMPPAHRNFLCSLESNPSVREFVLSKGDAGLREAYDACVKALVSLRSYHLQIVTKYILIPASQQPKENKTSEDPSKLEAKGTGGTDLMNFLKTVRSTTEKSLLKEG
Sequence (Q96SW2 whole entry, looked up): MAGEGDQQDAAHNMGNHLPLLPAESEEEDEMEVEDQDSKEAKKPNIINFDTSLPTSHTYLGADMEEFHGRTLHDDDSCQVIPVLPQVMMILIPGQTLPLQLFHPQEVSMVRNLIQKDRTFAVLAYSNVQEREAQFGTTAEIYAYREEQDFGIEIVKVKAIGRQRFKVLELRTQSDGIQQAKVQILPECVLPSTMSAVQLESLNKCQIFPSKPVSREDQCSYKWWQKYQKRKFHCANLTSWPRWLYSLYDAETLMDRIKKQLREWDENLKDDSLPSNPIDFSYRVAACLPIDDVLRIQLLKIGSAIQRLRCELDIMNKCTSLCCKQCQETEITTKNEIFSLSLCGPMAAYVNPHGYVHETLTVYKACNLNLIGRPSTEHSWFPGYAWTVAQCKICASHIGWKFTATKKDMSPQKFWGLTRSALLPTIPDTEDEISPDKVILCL
Property measured: Activity (%)
Write the value in % as a bare number.

Example entries and their recorded answers appear below.
C[C@@H](C(=O)Nc1ccc(Cl)c(OCCOCCOCCOCCOc2cccc3c2C(=O)N(C2CCC(=O)NC2=O)C3=O)c1)[C@H]1CC[C@@H](c2ccnc3ccc(F)cc32)CC1 (stereo partly specified) | 13
C[C@@H](C(=O)Nc1ccc(OC2CCN(CCCOCCOc3cccc4c3C(=O)N(C3CCC(=O)NC3=O)C4=O)CC2)cc1)[C@H]1CC[C@@H](c2ccnc3ccc(F)cc32)CC1 (stereo partly specified) | 0

Query: Identify Activity associated with the compound C[C@@H](C(=O)Nc1ccc(OCCOCCOCCOCCOCCNC(=O)COc2cccc3c2C(=O)N(C2CCC(=O)NC2=O)C3=O)cc1)[C@H]1CC[C@@H](c2ccnc3ccc(F)cc32)CC1 (stereo partly specified)
Response: 0

Query: Identify Activity associated with the compound C[C@@H](C(=O)Nc1ccc(OC2CN(C(=O)CCOCCOCCOc3cccc4c3C(=O)N(C3CCC(=O)NC3=O)C4=O)C2)cc1)[C@H]1CC[C@@H](c2ccnc3ccc(F)cc32)CC1 (stereo partly specified)
Response: 74

Query: Identify Activity associated with the compound C[C@@H](C(=O)Nc1ccc(Cl)c(OCCCOc2cccc3c2C(=O)N(C2CCC(=O)NC2=O)C3=O)c1)[C@H]1CC[C@@H](c2ccnc3ccc(F)cc32)CC1 (stereo partly specified)
Response: 49

Query: Identify Activity associated with the compound C[C@@H](C(=O)Nc1ccc(OCCOCCOCCOCCNC(=O)COc2cccc3c2C(=O)N(C2CCC(=O)NC2=O)C3=O)cc1)[C@H]1CC[C@@H](c2ccnc3ccc(F)cc32)CC1 (stereo partly specified)
Response: 0

---

Molecular target: Protein cereblon/Indoleamine 2,3-dioxygenase 1 (Homo sapiens, UniProt P14902+Q96SW2)
Assay: Protac activity at IDO1/CRBN in IFNgamma-stimulated human GBM43 cells assessed as IDO1 degradation measured after 24 hrs by Western blotting analysis
Type: cell-based, GBM43 cell
Sequence (P14902 whole entry): as the sequence (P14902 whole entry, looked up) above
Sequence (Q96SW2 whole entry): as the sequence (Q96SW2 whole entry, looked up) above
Property measured: EC50 (nM)
Write the value in nM as a bare number.

Query: Identify EC50 associated with the molecule C[C@@H](C(=O)Nc1ccc(OC2CCN(C(=O)CCOCCOCCNc3cccc4c3C(=O)N(C3CCC(=O)NC3=O)C4=O)CC2)cc1)[C@H]1CC[C@@H](c2ccnc3ccc(F)cc32)CC1 (stereo partly specified)
Response: 544

---

Biological target: Protein cereblon/Indoleamine 2,3-dioxygenase 1 (Homo sapiens, UniProt P14902+Q96SW2)
Assay: Protac activity at IDO1/CRBN in IFNgamma-stimulated human U87 cells assessed as IDO1 degradation at 10 uM measured after 24 hrs by Western blotting analysis relative to control
Type: cell-based
Property measured: Activity

C[C@@H](C(=O)Nc1ccc(OC2CCN(C(=O)CCOCCOCCNC(=O)COc3cccc4c3C(=O)N(C3CCC(=O)NC3=O)C4=O)CC2)cc1)[C@H]1CC[C@@H](c2ccnc3ccc(F)cc32)CC1 (stereo partly specified) | 81%
C[C@@H](C(=O)Nc1ccc(OCCCCCCCCCCOc2cccc3c2C(=O)N(C2CCC(=O)NC2=O)C3=O)cc1)[C@H]1CC[C@@H](c2ccnc3ccc(F)cc32)CC1 (stereo partly specified) | 0%
C[C@@H](C(=O)Nc1ccc(Cl)c(OCCCCCCOc2cccc3c2C(=O)N(C2CCC(=O)NC2=O)C3=O)c1)[C@H]1CC[C@@H](c2ccnc3ccc(F)cc32)CC1 (stereo partly specified) | 0%

Query: Identify Activity associated with the molecule C[C@@H](C(=O)Nc1ccc(OC2CN(C(=O)CCOCCNc3cccc4c3C(=O)N(C3CCC(=O)NC3=O)C4=O)C2)cc1)[C@H]1CC[C@@H](c2ccnc3ccc(F)cc32)CC1 (stereo partly specified)
Response: 90%

Query: Identify Activity associated with the molecule C[C@@H](C(=O)Nc1ccc(Cl)c(OCCOCCOCCOc2cccc3c2C(=O)N(C2CCC(=O)NC2=O)C3=O)c1)[C@H]1CC[C@@H](c2ccnc3ccc(F)cc32)CC1 (stereo partly specified)
Response: 88%

---

Test: Half life in C57BL/6 mouse brain at 25 mg/kg, ip
Assay type: ADME, organism-based
Property measured: half-life (h)
Write the value in h as a bare number.

Query: Identify half-life associated with the compound C[C@@H](C(=O)Nc1ccc(OC2CCN(C(=O)CCOCCOCCNc3cccc4c3C(=O)N(C3CCC(=O)NC3=O)C4=O)CC2)cc1)[C@H]1CC[C@@H](c2ccnc3ccc(F)cc32)CC1 (stereo partly specified)
Response: 8.3

---

# Activity per record follows
Molecular target: Protein cereblon/Indoleamine 2,3-dioxygenase 1 (Homo sapiens, UniProt P14902+Q96SW2)
Assay: Protac activity at IDO1/CRBN in IFNgamma-stimulated human U87 cells assessed as IDO1 degradation at 10 uM measured after 24 hrs by Western blotting analysis relative to control
Format: cell-based
The reply must contain the numeric value and, after it, the unit.

Example entries and their recorded answers appear below.
C[C@@H](C(=O)Nc1ccc(OC2CCN(C(=O)CCOCCNc3cccc4c3C(=O)N(C3CCC(=O)NC3=O)C4=O)CC2)cc1)[C@H]1CC[C@@H](c2ccnc3ccc(F)cc32)CC1 (stereo not given in full) | 33%
C[C@@H](C(=O)Nc1ccc(Cl)c(OCCCCCCCCCOc2cccc3c2C(=O)N(C2CCC(=O)NC2=O)C3=O)c1)[C@H]1CC[C@@H](c2ccnc3ccc(F)cc32)CC1 (stereo not given in full) | 16%
C[C@@H](C(=O)Nc1ccc(OC2CCN(C(=O)CCOCCOc3cccc4c3C(=O)N(C3CCC(=O)NC3=O)C4=O)CC2)cc1)[C@H]1CC[C@@H](c2ccnc3ccc(F)cc32)CC1 (stereo not given in full) | 45%
C[C@@H](C(=O)Nc1ccc(OC2CN(C(=O)CCOCCOCCNC(=O)COc3cccc4c3C(=O)N(C3CCC(=O)NC3=O)C4=O)C2)cc1)[C@H]1CC[C@@H](c2ccnc3ccc(F)cc32)CC1 (stereo not given in full) | 9%

Moving on to the next compound.
Query: Identify Activity associated with the compound C[C@@H](C(=O)Nc1ccc(OCCOCCOc2cccc3c2C(=O)N(C2CCC(=O)NC2=O)C3=O)cc1)[C@H]1CC[C@@H](c2ccnc3ccc(F)cc32)CC1 (stereo not given in full)
Response: 18%

---

Target: Protein cereblon/Indoleamine 2,3-dioxygenase 1 (Homo sapiens, UniProt P14902+Q96SW2)
Test: Protac activity at IDO1/CRBN in IFNgamma-stimulated human U87 cells assessed as IDO1 degradation at 10 uM measured after 24 hrs by Western blotting analysis relative to control
Type: cell-based
# Activity per record follows
Write the value in % as a bare number.

C[C@@H](C(=O)Nc1ccc(OCCCCCCCCCCNC(=O)COc2cccc3c2C(=O)N(C2CCC(=O)NC2=O)C3=O)cc1)[C@H]1CC[C@@H](c2ccnc3ccc(F)cc32)CC1 (stereo not given in full) | 0
C[C@@H](C(=O)Nc1ccc(OCCCCCCCCCCNc2cccc3c2C(=O)N(C2CCC(=O)NC2=O)C3=O)cc1)[C@H]1CC[C@@H](c2ccnc3ccc(F)cc32)CC1 (stereo not given in full) | 0
C[C@@H](C(=O)Nc1ccc(Cl)c(OCCOCCOCCOCCOCCOc2cccc3c2C(=O)N(C2CCC(=O)NC2=O)C3=O)c1)[C@H]1CC[C@@H](c2ccnc3ccc(F)cc32)CC1 (stereo not given in full) | 0
C[C@@H](C(=O)Nc1ccc(OCCOCCOCCOCCOCCNc2cccc3c2C(=O)N(C2CCC(=O)NC2=O)C3=O)cc1)[C@H]1CC[C@@H](c2ccnc3ccc(F)cc32)CC1 (stereo not given in full) | 0

Moving on to the next molecule.
Query: Under Protein cereblon/Indoleamine 2,3-dioxygenase 1 (Homo sapiens, UniProt P14902+Q96SW2), report Activity for C[C@@H](C(=O)Nc1ccc(OC2CCN(C(=O)CCOCCOCCNc3cccc4c3C(=O)N(C3CCC(=O)NC3=O)C4=O)CC2)cc1)[C@H]1CC[C@@H](c2ccnc3ccc(F)cc32)CC1 (stereo not given in full)
Response: 94
